Target: T1, DS-Cav1 RSV F (respiratory syncytial virus)
T1 construct: also called DC-VCav1
Assay: ELISA on DS-Cav1 RSV F
Measured Parameter: EC50 (µg/mL)
Provide the reading as a plain figure in µg/mL.

Binder	Measured Parameter	Value Reported
MPH12 VH-FRGL / MPH12 VL-D25S (antibody, V domains shown, MPH12 variant; VH and VL only) VH: QVQLVESGGGLVKPGGSLRLSCAASGFTFSGFYMKWIRQAPGKGLEWVSSISASGSYTNYADSVEGRFTISRDNAKNSLYLQMNSLRAEDTAVYYCARGDSYCGASACHGEFFHKWGQGTLVTVSS VL: QSVLTQPPSVSGAPGQRVTISCTGSSSNIGADFDVHWYQQLPGTAPKLLIYGNINRPSGVPDRFSGSRSGTSAFLAITRLQAEDEADYYCQSYDRSLHYVFGAGTKVTVL	EC50	0.0219

Turning now to a further binder:
Recorded EC50 for MPH12 VH-FRGL-D62E / MPH12 VL (antibody, V domains shown, MPH12 variant; VH and VL only) VH: QVQLVESGGGLVKPGGSLRLSCAASGFTFSGFYMKWIRQAPGKGLEWVSSISASGSYTNYAESVEGRFTISRDNAKNSLYLQMNSLRAEDTAVYYCARGDSYCGASACHGEFFHKWGQGTLVTVSS VL: QSVLTQPPSVSGAPGQRVTISCTGSDSNIGADFDVHWYQQLPGTAPKLLIYGNINRPSGVPDRFSGSRSGTSAFLAITRLQAEDEADYYCQSYDRSLHYVFGAGTKVTVL , please?
0.051

Reference source for all entries: patent US20260028391A1
